Entry source: patent EP0688331B1

- Tested on: cerebellar granule cells
- TEST CONDITIONS: read-out: ED50 (antineurotoxic activity); co-treatment with 100 µM glutamate, 30 minutes; MTT after 24 hours
ATTRIBUTE MEASURED: pEC50
Recall that pEC50 is obtained by taking minus log10 of the concentration measured in molar.

Task: // returns reported pEC50 for input O-SULFATED N'SULFO-N'-LYSO-GM1 [Liga 179]
Output: 4.82

----------
- System: cerebellar granule cells
- TEST CONDITIONS: read-out: ED50 (antineurotoxic activity); 2 hrs pretreatment, then 100 µM glutamate 60 minutes; MTT after 24 hr
ATTRIBUTE MEASURED: EC50
Respond with a number, then the unit of measure.

Task: Quick one: EC50 of N-4-CHLOROBENZENESULFONYL-LYSOGM1 [Liga 123] ?
Output: 6 µM
